Target System: Aldo-keto reductase family 1 member B10 (Homo sapiens)
Sequence (O60218 whole entry): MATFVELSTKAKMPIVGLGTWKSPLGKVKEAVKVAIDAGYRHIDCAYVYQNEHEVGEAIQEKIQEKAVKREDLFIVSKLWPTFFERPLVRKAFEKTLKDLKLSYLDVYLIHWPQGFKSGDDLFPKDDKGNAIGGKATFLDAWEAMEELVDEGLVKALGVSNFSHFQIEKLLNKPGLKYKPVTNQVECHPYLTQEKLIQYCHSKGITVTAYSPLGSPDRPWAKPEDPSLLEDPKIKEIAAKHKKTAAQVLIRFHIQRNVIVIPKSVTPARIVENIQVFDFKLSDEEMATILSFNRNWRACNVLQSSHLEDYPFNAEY
Assay Overview: Inhibition of human AKR1B10 using D,L-glyceraldehyde as substrate incubated for 1 min and measured up to 4 mins using by spectrophotometric analysis
Measured Property: IC50
Include the unit right after the number.

Lookup: Under Aldo-keto reductase family 1 member B10 (Homo sapiens): IC50 value of O=C(O)Cn1c2ccccc2c2n[nH]c(=O)nc21 ?
Found: 56.2 µM

---

IC50 values, listed per item
Assay Overview: Inhibition of rat kidney ALR1 using sodium D-glucuronate as substrate incubated for 1 min and measured up to 4 mins using H2O-dissolved compound by spectrophotometric analysis
Please respond with the number in µM and leave the unit unwritten.

Lookup: Give the measured IC50 of O=C(O)Cn1nc2c3ccccc3n(CC(=O)O)c2nc1=O .
Found: 20.2

Now consider a different compound.
Lookup: Give the measured IC50 of O=C(O)Cn1c2ccccc2c2nnc(S)nc21 .
Found: 35

---

Target System: UniProt:P07943
Assay Overview: Inhibition of rat lens ALR2 using 4-hydroxynonenal as substrate incubated for 1 min and measured up to 4 mins by spectrophotometric analysis
Measured Property: IC50 (nM)
Please respond with the number in nM and leave the unit unwritten.

Lookup: Give the measured IC50 of O=C(O)Cn1c2ccccc2c2n[nH]c(=O)nc21 .
Found: 216

---

pIC50 values, listed per item
Target System: Aldo-keto reductase family 1 member B1 (Rattus norvegicus, UniProt P07943)
Assay Overview: Inhibition of rat lens ALR2 using D,L-glyceraldehyde as substrate incubated for 1 min and measured up to 4 mins using 1% DMSO-dissolved compound by spectrophotometric analysis
Scale: pIC50 equals -log10([C]), with [C] in mol/L.

Check out these entries, answers already filled in.
Lookup: Give the measured pIC50 of COCn1nc2c3ccccc3n(CC(=O)O)c2nc1=O .
Found: 6.93

Lookup: Same question, O=C(O)Cn1c2ccccc2c2nn(Cc3ccccc3)c(=O)nc21 this time
Found: 6.10

Lookup: Same question, O=C(O)Cn1nc2c3ccccc3n(CC(=O)O)c2nc1=O this time
Found: 6.63

Now consider a different compound.
Lookup: Give the measured pIC50 of O=C(O)Cn1c2ccccc2c2n[nH]c(=O)nc21 .
Found: 7.29

---

Target System: UniProt:P07943
Assay Overview: Inhibition of rat lens ALR2 using 4-hydroxynonenal glutathione as substrate incubated for 1 min and measured up to 4 mins by spectrophotometric analysis
Measured Property: pIC50
Scale: pIC50 equals -log10([C]), with [C] in mol/L.

Lookup: Give the measured pIC50 of O=C(O)Cn1c2ccccc2c2n[nH]c(=O)nc21 .
Found: 6.53

---

Target System: Aldo-keto reductase family 1 member B1 (Rattus norvegicus, UniProt P07943)
Assay Overview: Inhibition of rat lens ALR2 using methylglyoxal as substrate incubated for 1 min and measured up to 4 mins by spectrophotometric analysis
Measured Property: IC50 (nM)
Please respond with the number in nM and leave the unit unwritten.

Lookup: Give the measured IC50 of O=C(O)Cn1c2ccccc2c2n[nH]c(=O)nc21 .
Found: 40

---

Target System: Aldo-keto reductase family 1 member B1 (Rattus norvegicus, UniProt P07943)
Assay Overview: Inhibition of rat lens ALR2 using D,L-glyceraldehyde as substrate incubated for 1 min and measured up to 4 mins using H2O-dissolved compound by spectrophotometric analysis
IC50 values, listed per item

Check out these entries, answers already filled in.
Lookup: Give the measured IC50 of COCn1nc2c3ccccc3n(CC(=O)O)c2nc1=O .
Found: 85 nM

Lookup: Same question, O=C(O)Cn1nc2c3ccccc3n(CC(=O)O)c2nc1=O this time
Found: 120 nM

Lookup: Same question, O=C(O)Cn1c2ccccc2c2nn(Cc3ccccc3)c(=O)nc21 this time
Found: 434 nM

Now consider a different compound.
Lookup: Give the measured IC50 of O=C(O)Cn1c2ccccc2c2n[nH]c(=O)nc21 .
Found: 42 nM

Origin of values: ChEMBL document CHEMBL4376851
